Origin of values: paper PMC5540273

# Test system: PRKCQ
# PARTICULARS: concentration: 1 μM, replicates: in singlicate; n = 1;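 further: KINOMEscan kinase panel screen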
// assign y if %Inh falls strictly below 10%, else n (ties count as n)

Examples from the recorded data:
[[record]]
compound_string = "CN1c2ccc(NCc3ccc(F)cc3)cc2-c2c(cnn2C)S1(=O)=O"
answer_label = "n"

[[record]]
compound_string = "O=C(Nc1n[nH]c2cc(-c3cccc(F)c3)ccc12)C1CC1"
answer_label = "y"

[[record]]
compound_string = "CN1c2ccc(CNc3ccc(F)cc3)cc2-c2c(cnn2C)S1(=O)=O"
answer_label = "n"

[[record]]
compound_string = "COc1cc2ncn(-c3cc(OCc4sccc4Cl)c(C(N)=O)s3)c2cc1OC"
answer_label = "y"

[[record]]
compound_string = "CC(C)Oc1ccc2c(-c3ccnc(Nc4ccc(N5CCN(C)CC5)cc4)n3)cnn2n1"
answer_label = "y"

[[record]]
compound_string = "O=C1NC(=O)C(N2CCc3ccccc32)=C1c1cccc(Cl)c1"
answer_label = "n"


Then this compound:
Q) Decide: %Inh of `NS(=O)(=O)c1cccc(-c2ccc3nccc(-c4cccc(S(N)(=O)=O)c4)c3c2)c1` strictly below 10%?
A) y

* * *

# Test system: PIP5K2C
# Construct: gene PIP4K2C
# PARTICULARS: concentration: 1 μM, replicates: in singlicate; n = 1
Output Satisfied for %Inh not less than 3%; output Not satisfied otherwise.

Examples from the recorded data:
[[record]]
compound_string = "Cc1cccc(Cn2ccn3c(=O)cc(N4CCOCC4)nc23)c1"
answer_label = "Satisfied"

[[record]]
compound_string = "CC(=O)Nc1ccc(COc2ccc(Nc3ccnc4cc(-c5ccccn5)ccc34)cc2)cc1.Cl"
answer_label = "Satisfied"

[[record]]
compound_string = "O=C(NCCCN1CCOCC1)c1cccc(Nc2nccc(Nc3ccc(Oc4ccccc4)cc3)n2)c1"
answer_label = "Satisfied"


Then this molecule:
Q) Item `CCc1nc(-c2cccc(C)c2)c(-c2ccnc(NCc3ccccc3)c2)s1` with %Inh of 3% or above?
A) Not satisfied

* * *

# System: ERN1
# PARTICULARS: concentration: 1 μM, replicates: in singlicate; n = 1
QUANTITY NAME: %Inh

[[record]]
compound = "CN(C1=C(c2ccccc2)C(=O)NC1=O)c1ccccc1"
target_or_system = "ERN1"
quantity_name = "%Inh"
result = "20%"

[[record]]
compound = "[2H]C([2H])(c1cccc(C(F)(F)F)c1C)n1ccn2c(=O)nc(N3CCOCC3)cc12"
target_or_system = "ERN1"
quantity_name = "%Inh"
result = "0%"

[[record]]
compound = "Cc1cccc(-c2nc(Nc3ccc4ncsc4c3)c3ccccc3n2)n1"
target_or_system = "ERN1"
quantity_name = "%Inh"
result = "38%"

[[record]]
compound = "COc1cc(Nc2nccc(N3CCC(NC(=O)c4cccc(NC(C)=O)c4)C3)n2)cc(OC)c1OC (stereo not drawn)"
target_or_system = "ERN1"
quantity_name = "%Inh"
result = "22%"

[[record]]
compound = "Cc1ccc(C(=O)NCC(N)=O)cc1-n1c(C)cc(OCc2ccc(F)cc2F)c(Br)c1=O"
target_or_system = "ERN1"
quantity_name = "%Inh"
result = "0%"


What the record says about `O=C(NOCC1CC1)c1ccc(F)c(F)c1Nc1ccc(I)cc1Cl` : %Inh is 0%

* * *

Listed here are compounds together with their documented %Inh.
# Test system: DDR1
# PARTICULARS: concentration: 1 μM, replicates: in singlicate; n = 1
Reply numerically in %, unit not repeated.

Some compounds with known %Inh results, for comparison:
[[record]]
compound = "C[C@@H](Oc1cc(-n2cnc3ccc(NC(=O)NC(C)(C)C)cc32)sc1C(N)=O)c1ccccc1Cl"
quantity_name = "%Inh"
readout_number = 16

[[record]]
compound = "N#Cc1ccc(-c2cc(-c3c[nH]nc3-c3ccccn3)ccn2)cc1"
quantity_name = "%Inh"
readout_number = 0

[[record]]
compound = "CSc1ccc(-c2cc3ncnc(SCC(=O)O)c3s2)cc1"
quantity_name = "%Inh"
readout_number = 0


// next entry
Field %Inh (DDR1), entry `c1ccc(-c2n[nH]cc2-c2ccnc3ccccc23)nc1` : 8

* * *

# System: CDKL5
# PARTICULARS: concentration: 1 μM, replicates: in singlicate; n = 1
QUANTITY NAME: %Inh (%)
Reply numerically in %, unit not repeated.

[[record]]
compound = "Nc1nc(-c2ccc3c(N)n[nH]c3c2)cc(N2CCCC2)n1"
readout_number = 0

[[record]]
compound = "Cc1ccc(C(=O)NCC(N)=O)cc1-n1c(C)cc(OCc2ccc(F)cc2F)c(Br)c1=O"
readout_number = 0

[[record]]
compound = "O=C(NOCC1CC1)c1ccc(F)c(F)c1Nc1ccc(I)cc1Cl"
readout_number = 0

[[record]]
compound = "O=C(NCCCN1CCOCC1)c1cccc(Nc2nccc(Nc3ccc(Oc4ccccc4)cc3)n2)c1"
readout_number = 0

[[record]]
compound = "Cc1cccc(Cn2ccn3c(=O)cc(N4CCOCC4)nc23)c1"
readout_number = 0


What the record says about `[2H]C([2H])(c1cccc(C(F)(F)F)c1C)n1ccn2c(=O)nc(N3CCOCC3)cc12` : %Inh is 0

What the record says about `O=c1cc(N2CCOCC2)nc2n(Cc3cccc(C(F)(F)F)c3)ccn12` : %Inh is 0

What the record says about `NCCNS(=O)(=O)c1ccc(-c2ccnc3[nH]ccc23)cc1` : %Inh is 0

What the record says about COc1ccc(CNC(=O)NC2CCN(c3ccnc(Nc4ccc(OC)cc4)n3)C2)cc1 (stereo not drawn) : %Inh is 0

* * *

# Tested on: SGK
# PARTICULARS: concentration: 1 μM, replicates: in singlicate; n = 1
QUANTITY NAME: %Inh (%)
Reply numerically in %, unit not repeated.

Some compounds with known %Inh results, for comparison:
[[record]]
compound = "Cc1cccc(-c2nc(Nc3ccc4ncsc4c3)c3ccccc3n2)n1 [GW867588]"
quantity_name = "%Inh"
readout_number = 5

[[record]]
compound = "CN(C(=O)c1ccc(-c2cc(-c3c[nH]nc3-c3ccccn3)ccn2)cc1)C1CCOCC1 [GW810083]"
quantity_name = "%Inh"
readout_number = 18

[[record]]
compound = "CSc1ccc(-c2cc3ncnc(SCC(=O)O)c3s2)cc1"
quantity_name = "%Inh"
readout_number = 0

[[record]]
compound = "COc1ccc(Nc2nccc(N3CCC(NC(=O)Nc4cc(C)ccc4C)C3)n2)cc1 (stereo not drawn) [GSK1379741]"
quantity_name = "%Inh"
readout_number = 0

[[record]]
compound = "Cc1cccc(-c2nc(-c3ccc(S(C)(=O)=O)cc3)sc2-c2ccncc2)c1"
quantity_name = "%Inh"
readout_number = 0


What the record says about O=C1NC(=O)C(N2CCc3ccccc32)=C1c1cccc(Cl)c1 [SB-408010] : %Inh is 0

What the record says about `O=C(NOCC1CC1)c1ccc(F)c(F)c1Nc1ccc(I)cc1Cl` : %Inh is 0

What the record says about `CN1c2ccc(NCc3ccc(F)cc3)cc2-c2c(cnn2C)S1(=O)=O` : %Inh is 5

What the record says about CNc1ncnc2[nH]ncc12 [SKF-18355] : %Inh is 6

* * *

# System: RSK1(Kin.Dom.2-C-terminal)
# Construct: gene RPS6KA1
# PARTICULARS: concentration: 1 μM, replicates: in singlicate; n = 1
Listed here are molecules together with their documented %Inh.
Reply numerically in %, unit not repeated.

[[record]]
molecule = "COc1cc2ncn(-c3cc(OCc4sccc4Cl)c(C(N)=O)s3)c2cc1OC"
target_or_system = "RSK1(Kin.Dom.2-C-terminal)"
quantity_name = "%Inh"
readout_number = 0

[[record]]
molecule = "Cn1cc(-c2ccc3c(c2)CCN3C(=O)Cc2ccccc2Cl)c2c(N)ncnc21"
target_or_system = "RSK1(Kin.Dom.2-C-terminal)"
quantity_name = "%Inh"
readout_number = 30

[[record]]
molecule = "[2H]C([2H])(c1cccc(C(F)(F)F)c1C)n1ccn2c(=O)nc(N3CCOCC3)cc12"
target_or_system = "RSK1(Kin.Dom.2-C-terminal)"
quantity_name = "%Inh"
readout_number = 0


What the record says about `Cc1cn2c(=O)cc(N3CCOCC3)nc2n1Cc1cccc(Cl)c1Cl` : %Inh is 5

What the record says about `O=c1cc(N2CCOCC2)nc2n(Cc3cccc(C(F)(F)F)c3)ccn12` : %Inh is 15

What the record says about `Cc1cccc(-c2nc(-c3ccc(S(C)(=O)=O)cc3)sc2-c2ccncc2)c1` : %Inh is 34

What the record says about `CSc1ccc(-c2cc3ncnc(SCC(=O)O)c3s2)cc1` : %Inh is 12

What the record says about `Cc1c2ccc(N(C)c3ccnc(Nc4cccc(S(N)(=O)=O)c4)n3)cc2nn1Cc1ccccc1.Cl.Cl` : %Inh is 19

What the record says about Cc1c(Cn2c(C)nn3c(=O)cc(N4CCOC(C)C4)nc23)cccc1C(F)(F)F (stereo not shown) : %Inh is 6

What the record says about `Nc1nccc(-c2c(-c3ccc(F)cc3)ncn2C2CCN(CC(F)(F)F)CC2)n1` : %Inh is 27

What the record says about NCC(NC(=O)c1cc(-c2cn[nH]c2)c(-c2ccnc3[nH]ccc23)s1)c1ccccc1.O=C(O)C(F)(F)F.O=C(O)C(F)(F)F (stereo not shown) : %Inh is 5

What the record says about `COC(=O)Nc1nc2cc(Oc3ccc(NC(=O)Nc4cc(F)ccc4F)cc3)ccc2[nH]1.Cl` : %Inh is 0

What the record says about `Fc1ccc(-c2ncn(CCCN3CCOCC3)c2-c2cccnc2)cc1` : %Inh is 9

What the record says about COc1ccc(Nc2nccc(N3CCC(NC(=O)Nc4cccc(C(C)=O)c4)C3)n2)cc1 (stereo not shown) : %Inh is 0

What the record says about COc1cc(Nc2nccc(N3CCC(NC(=O)c4cccc(NC(C)=O)c4)C3)n2)cc(OC)c1OC (stereo not shown) : %Inh is 0
